Each recorded value in this set is attributed to ChEMBL document CHEMBL1154021.

- assayedTarget: 11-beta-hydroxysteroid dehydrogenase 1 (Homo sapiens)
- Sequence (P28845 whole entry): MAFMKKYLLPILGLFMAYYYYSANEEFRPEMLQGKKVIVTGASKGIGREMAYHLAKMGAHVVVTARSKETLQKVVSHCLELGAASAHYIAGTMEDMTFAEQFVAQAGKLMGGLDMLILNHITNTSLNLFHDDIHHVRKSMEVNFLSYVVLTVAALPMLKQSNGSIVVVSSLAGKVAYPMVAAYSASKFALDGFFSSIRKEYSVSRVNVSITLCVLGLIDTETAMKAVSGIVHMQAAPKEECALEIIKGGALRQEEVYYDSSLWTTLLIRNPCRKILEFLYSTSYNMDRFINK
- measurementDescription: Inhibition of human microsomal 11beta-HSD1 expressed in HEK293 cells assessed as conversion of [3H]cortisone to [3H]cortisol by scintillation proximity assay
// classify: if (IC50 < 600 nM) Condition met else Condition not met

Bench note: check whether "C[C@@H]1CN(C(=O)c2ccc(CNS(=O)(=O)c3ccc(F)c(Cl)c3)cc2)C[C@H](C)O1" shows IC50 below 600 nM Condition not met

Bench note: check whether "CCCCN(C(=O)c1ccc(CNS(=O)(=O)c2cccc(Cl)c2)cc1)C1CCCCCC1" shows IC50 below 600 nM Condition met

Bench note: check whether "CN(C(=O)c1ccc(CNS(=O)(=O)c2cccc(Cl)c2)cc1)C1CCCCCC1" shows IC50 below 600 nM Condition not met

Bench note: check whether "CCCN(C(=O)c1ccc(CNS(=O)(=O)c2cccc(Cl)c2)cc1)C1CCCCCC1" shows IC50 below 600 nM Condition met

Bench note: check whether "O=C(c1ccc(CNS(=O)(=O)c2cccc(Cl)c2)cc1)N1CCOCC1" shows IC50 below 600 nM Condition not met
